measurement-target: Voltage-dependent T-type calcium channel subunit alpha-1I (Homo sapiens)
Sequence (Q9P0X4 whole entry): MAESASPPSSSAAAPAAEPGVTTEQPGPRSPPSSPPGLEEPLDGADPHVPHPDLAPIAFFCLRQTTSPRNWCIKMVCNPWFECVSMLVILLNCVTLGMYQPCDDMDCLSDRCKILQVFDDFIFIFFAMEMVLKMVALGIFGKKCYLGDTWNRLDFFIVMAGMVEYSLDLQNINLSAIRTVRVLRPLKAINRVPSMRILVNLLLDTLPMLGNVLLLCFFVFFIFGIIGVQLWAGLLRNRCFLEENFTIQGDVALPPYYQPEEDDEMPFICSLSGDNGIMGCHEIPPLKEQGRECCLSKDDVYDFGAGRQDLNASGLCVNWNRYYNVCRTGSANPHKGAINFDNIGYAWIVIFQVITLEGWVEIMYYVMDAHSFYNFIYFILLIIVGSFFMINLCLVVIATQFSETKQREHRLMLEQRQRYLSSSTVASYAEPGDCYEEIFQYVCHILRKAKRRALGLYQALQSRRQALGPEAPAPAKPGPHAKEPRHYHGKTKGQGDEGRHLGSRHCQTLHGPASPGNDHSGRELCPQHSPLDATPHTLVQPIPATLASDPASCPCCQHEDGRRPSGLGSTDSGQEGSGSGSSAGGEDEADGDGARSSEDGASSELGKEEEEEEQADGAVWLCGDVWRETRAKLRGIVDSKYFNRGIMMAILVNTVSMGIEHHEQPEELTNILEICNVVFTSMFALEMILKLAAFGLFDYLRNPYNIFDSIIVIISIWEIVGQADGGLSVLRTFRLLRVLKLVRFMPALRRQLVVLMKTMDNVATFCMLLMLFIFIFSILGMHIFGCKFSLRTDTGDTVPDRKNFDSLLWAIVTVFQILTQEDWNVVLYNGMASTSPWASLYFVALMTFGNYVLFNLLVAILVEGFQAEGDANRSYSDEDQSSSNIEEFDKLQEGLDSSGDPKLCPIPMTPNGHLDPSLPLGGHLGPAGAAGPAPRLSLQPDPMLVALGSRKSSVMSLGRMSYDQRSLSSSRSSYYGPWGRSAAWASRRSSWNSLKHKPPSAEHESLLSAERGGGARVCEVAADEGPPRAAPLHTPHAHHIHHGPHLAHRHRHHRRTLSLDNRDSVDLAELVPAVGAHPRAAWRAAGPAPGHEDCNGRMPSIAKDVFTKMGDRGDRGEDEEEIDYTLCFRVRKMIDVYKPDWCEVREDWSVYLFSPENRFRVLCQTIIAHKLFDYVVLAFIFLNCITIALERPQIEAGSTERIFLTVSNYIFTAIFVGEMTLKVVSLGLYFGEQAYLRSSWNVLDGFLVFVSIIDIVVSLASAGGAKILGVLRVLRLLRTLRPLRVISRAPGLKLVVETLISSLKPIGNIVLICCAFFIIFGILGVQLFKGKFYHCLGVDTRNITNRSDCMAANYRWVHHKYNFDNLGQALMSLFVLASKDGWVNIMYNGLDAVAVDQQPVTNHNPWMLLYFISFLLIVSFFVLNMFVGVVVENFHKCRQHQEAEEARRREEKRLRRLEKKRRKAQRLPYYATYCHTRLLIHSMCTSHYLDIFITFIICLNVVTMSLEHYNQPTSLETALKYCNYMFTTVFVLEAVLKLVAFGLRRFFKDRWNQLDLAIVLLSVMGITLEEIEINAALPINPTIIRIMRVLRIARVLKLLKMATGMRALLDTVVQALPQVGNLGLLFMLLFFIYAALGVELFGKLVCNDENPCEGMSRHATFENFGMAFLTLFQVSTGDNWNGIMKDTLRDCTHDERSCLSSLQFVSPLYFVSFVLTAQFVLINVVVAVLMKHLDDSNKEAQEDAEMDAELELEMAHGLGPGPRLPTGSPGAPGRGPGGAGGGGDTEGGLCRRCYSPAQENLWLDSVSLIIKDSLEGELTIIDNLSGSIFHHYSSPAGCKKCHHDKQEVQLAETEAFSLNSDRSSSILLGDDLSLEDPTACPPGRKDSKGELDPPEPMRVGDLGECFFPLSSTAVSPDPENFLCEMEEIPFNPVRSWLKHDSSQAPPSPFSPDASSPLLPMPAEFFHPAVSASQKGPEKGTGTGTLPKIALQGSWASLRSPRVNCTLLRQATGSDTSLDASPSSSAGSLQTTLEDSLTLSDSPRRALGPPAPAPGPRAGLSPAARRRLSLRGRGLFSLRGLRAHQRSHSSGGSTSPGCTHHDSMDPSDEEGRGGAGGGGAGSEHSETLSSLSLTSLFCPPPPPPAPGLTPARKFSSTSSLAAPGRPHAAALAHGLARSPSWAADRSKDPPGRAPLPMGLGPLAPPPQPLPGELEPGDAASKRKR
protocol-details: Antagonist activity at Cav3.3 at -100 mV holding potential by whole cell patch clamp analysis
Assay type: functional
readout-name: pIC50
Scale for pIC50: -log10 of concentration given in mol/L; no unit attached.

Input: Entry Cc1nccnc1-c1ccc(CC(=O)N[C@H](C)c2ccc(OCC(F)(F)F)cn2)cc1 , system Voltage-dependent T-type calcium channel subunit alpha-1I (Homo sapiens): what pIC50 was measured?
Output: 4.92

---

protocol-details: Apparent terminal half life in human at 20 mg, po
Assay type: ADME, organism-based
measurement-context: in vivo, read-out: betat1/2(app) (converted)
readout-name: half-life

Input: Please give the measured half-life for this molecule: Cc1nccnc1-c1ccc(CC(=O)N[C@H](C)c2ccc(OCC(F)(F)F)cn2)cc1
Output: 3 h

---

System: LLC-PK1
protocol-details: Ratio of permeability from basolateral to apical side to apical to basolateral side of pig LLC-PK1 cells expressing P-gp
Assay type: ADME, cell-based, Sus scrofa
readout-name: Ratio
Form field (numeric): enter value without unit.

# annotated cases, reported Ratio shown
INSERT INTO results (mol, readout_name, measured_value) VALUES
  ('Cc1ncoc1-c1ccc(CC(=O)N[C@H](C)c2ccc(OCC(F)(F)F)cn2)cc1', 'Ratio', 1.1),
  ('Cc1nccnc1-c1ccc(CC(=O)N[C@H](C)c2ccc(OCC(F)(F)F)cn2)cc1', 'Ratio', 1.3),
  ('C[C@@H](NC(=O)Cc1ccc(C2CC2)cc1)c1ccc(OCC(F)(F)F)cn1', 'Ratio', 0.7);

We next turn to a different compound, shown below.
Input: Please give the measured Ratio for this compound: C[C@@H](NC(=O)Cc1ccc(-c2cnn3ncccc23)cc1)c1ccc(OCC(F)(F)F)cn1
Output: 1.3

---

protocol-details: Half life in rat at 5 mg/kg, po
Assay type: ADME, organism-based
Design: dose 5 mg/kg, route oral
measurement-context: in vivo
readout-name: half-life (min)
Dear colleague, please return just the value in min, with no unit written.

Input: Please give the measured half-life for this molecule: Cc1nccnc1-c1ccc(CC(=O)N[C@H](C)c2ccc(OCC(F)(F)F)cn2)cc1
Output: 14

---

protocol-details: Cmax in human at 20 mg, po
Format: ADME, organism-based
Design: dose 20 mg, route oral
measurement-context: in vivo
readout-name: Cmax (nM)
Dear colleague, please return just the value in nM, with no unit written.

Input: Please give the measured Cmax for this compound: Cc1nccnc1-c1ccc(CC(=O)N[C@H](C)c2ccc(OCC(F)(F)F)cn2)cc1
Output: 1820

---

Quick list: fraction unbound at 5 µM per entry.
protocol-details: Plasma protein binding in dog assessed as fraction unbound at 5 uM
Assay type: ADME, cell-free, Canis lupus familiaris
Form field (numeric): enter value without unit.

INSERT INTO assay_data (mol, measured_value) VALUES
  ('Cc1nccnc1-c1ccc(CC(=O)N[C@H](C)c2ccc(OCC(F)(F)F)cn2)cc1', 0.155);

We next turn to a different compound, shown below.
Input: Please give the measured fraction unbound at 5 µM for this compound: Cc1ncoc1-c1ccc(CC(=O)N[C@H](C)c2ccc(OCC(F)(F)F)cn2)cc1
Output: 0.016

---

Quick list: activity at 10 µM per entry.
measurement-target: PXR (NR1I2) (Homo sapiens, UniProt O75469)
Sequence (O75469 whole entry): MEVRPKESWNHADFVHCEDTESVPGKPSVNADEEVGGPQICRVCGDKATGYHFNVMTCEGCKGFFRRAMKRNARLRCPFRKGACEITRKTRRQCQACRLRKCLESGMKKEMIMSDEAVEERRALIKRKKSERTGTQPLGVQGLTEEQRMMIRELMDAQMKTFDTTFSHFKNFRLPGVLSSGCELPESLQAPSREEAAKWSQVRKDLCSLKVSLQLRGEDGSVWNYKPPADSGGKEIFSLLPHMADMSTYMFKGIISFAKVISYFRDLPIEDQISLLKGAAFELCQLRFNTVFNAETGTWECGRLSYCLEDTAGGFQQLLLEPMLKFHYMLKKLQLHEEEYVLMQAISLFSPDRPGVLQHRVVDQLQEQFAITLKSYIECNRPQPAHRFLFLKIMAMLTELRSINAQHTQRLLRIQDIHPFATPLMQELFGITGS
protocol-details: Activity at PXR at 10 uM relative to rifampicin
measurement-context: read-out: Activity
Dear colleague, please return just the value in %, with no unit written.

# annotated cases, reported activity at 10 µM shown
INSERT INTO measurements (mol, quantity_unit, measured_value) VALUES
  ('C[C@@H](NC(=O)Cc1ccc(-c2cnn3ncccc23)cc1)c1ccc(OCC(F)(F)F)cn1', '%', 0),
  ('C[C@@H](NC(=O)Cc1ccc(C2CC2)cc1)c1ccc(OCC(F)(F)F)cn1', '%', 17),
  ('C[C@@H](NC(=O)Cc1ccc(N2CC[C@H](F)C2)cc1)c1ccc(OCC(F)(F)F)cn1', '%', 31),
  ('Cc1ncoc1-c1ccc(CC(=O)N[C@H](C)c2ccc(OCC(F)(F)F)cn2)cc1', '%', 7);

We next turn to a different molecule, shown below.
Input: Please give the measured activity at 10 µM for this molecule: Cc1nccnc1-c1ccc(CC(=O)N[C@H](C)c2ccc(OCC(F)(F)F)cn2)cc1
Output: 8
